Biological target: UniProtKB P43405
Measure name: IC50

>>> df
                           substance_smiles       system_name  measure_name  observed
0  O=C1NCCN(c2ncc(-c3cccc(Nc4nccc(-c5cccnc5)n4)c3)o2)C12CC2  UniProtKB P43405          IC50  < 500 nM
